- Target System: T1, GDF11 (UniProt O95390 299-407)
- T1 sequence (looked up): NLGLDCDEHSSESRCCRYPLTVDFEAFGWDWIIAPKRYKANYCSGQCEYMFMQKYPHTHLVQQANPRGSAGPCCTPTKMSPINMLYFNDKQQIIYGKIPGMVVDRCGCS
- Protocol Notes: cell-based or functional assay
Measurement Name: IC50 (ng/mL), reporter gene assay, conditioned media

- Binder: "ActRIIB(20-134)-hFc (Fc fusion) GRGEAETRECIYYNANWELERTNQSGLERCEGEQDKRLHCYASWRNSSGTIELVKKGCWLDDFNCYDRQECVATEENPQVYFCCCEGNFCNERFTHLPEAGGPEVTYEPPPTAPTGGGTHTCPPCPAPELLGGPSVFLFPPKPKDTLMISRTPEVTCVVVDVSHEDPEVKFNWYVDGVEVHNAKTKPREEQYNSTYRVVSVLTVLHQDWLNGKEYKCKVSNKALPVPIEKTISKAKGQPREPQVYTLPPSREEMTKNQVSLTCLVKGFYPSDIAVEWESNGQPENNYKTTPPVLDSDGSFFLYSKLTVDKSRWQQGNVFSCSVMHEALHNHYTQKSLSLSPGK"
  Observed Value: 45
